Target: T1, Human TNFR2 expressed on cells (CHO-hTNFR2 cells) (human, UniProt P20333 23-461)
T1 construct: also called CHO cells overexpressing human TNFR2; human TNFR2 reporter cells (HEK293)
T1 sequence: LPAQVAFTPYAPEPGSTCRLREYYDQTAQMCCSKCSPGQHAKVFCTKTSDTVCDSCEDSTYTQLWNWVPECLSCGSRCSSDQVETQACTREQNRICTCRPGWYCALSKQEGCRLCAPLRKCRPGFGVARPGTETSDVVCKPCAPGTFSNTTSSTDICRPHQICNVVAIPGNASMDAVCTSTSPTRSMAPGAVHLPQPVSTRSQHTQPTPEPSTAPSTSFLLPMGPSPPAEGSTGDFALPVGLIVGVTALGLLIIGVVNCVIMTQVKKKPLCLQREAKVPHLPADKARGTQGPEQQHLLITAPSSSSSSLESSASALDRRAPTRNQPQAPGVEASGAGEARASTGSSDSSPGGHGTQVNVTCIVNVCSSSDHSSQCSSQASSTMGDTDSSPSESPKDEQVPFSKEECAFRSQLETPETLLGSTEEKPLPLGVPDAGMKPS
Assay: flow cytometry, titration of soluble scFv (up to 300 nM) on CHO-hTNFR2 cells; one site binding non-linear fit
pKd: −log10 of the molar value.
Recorded pKd by entry
measured_metric: pKd

UC6 (9-1A6) scFv (scFv, Soluble scFv) scFv: QVQLVQSGAEVKKPGSSVKVSCKASGDSFNNFGISWVRQAPGQGLEWMGGIVPVLGIATYAQKFQGRVTITADESTSTAYMELSSLRSEDTAVYYCARGSAWYDGSFQYWGQGTLVTVSSASSGGSTSGSGKPGSGEGSSGSAREIVLTQSPGTLSLSPGERATLSCRASQSVSSTFLAWYQQKPGQAPRLLIYDASTRATGIPDRFSGSDSGTDFTLTISRLEPEDFAVYYCQQYDSWPFTFGQGTKVEIKR = 7.38
UC1 (S4-2 1B5) scFv (scFv) scFv: QVQLLESGGGLVQPGGSLRLSCAASGFSFTSYAMTWVRQAPGKGLEWVSGISGGGAATFYADSVKGRFTISRDNSKNTLYLQMNSLRAEDTAVYYCARQSQYVGGFDYWGQGTLVTVSSASSGGSTSGSGKPGSGEGSSGSARQSVLTQPPSVSGAPGQRVTISCTGSSSNIGAGYGVHWYQQLPGTAPKLLIYGNTNRPSGVPDRFSGFKSGTSASLAITGLQAEDEADYYCQSYDSSLSGWVFGGGTKLTVLG = 8.09
UC3 (S4-2 1E5) scFv (scFv, Soluble scFv) scFv: QVQLLESGGGLVQPGGSLRLSCAASGFSFSSYAMSWVRQAPGKGLEWVSGISAGGGETFYADSVKGRFTISRDNSKNTLYLQMNSLRAEDTAVYYCARVHPISYGFDIWGQGTLVTVSSASSGGSTSGSGKPGSGEGSSGSARDIQMTQSPSSLSASVGDRVTITCQASQDIKKYLNWYQQKPGKAPKLLIYDASTLQTGVPSRFSGSGSGTDFTFTISSLQPEDIATYYCQQSDNTPVTFGQGTKVEIKR = 7.71
UC5 (8-2A10) scFv (scFv, Soluble scFv) scFv: QVQLLESGGGLVQPGGSLRLSCAASGFTFNTYAMTWVRQAPGKGLEWVSAISDSGGDTFYADSVKGRFTISRDNSKNTLYLQMNSLRAEDTAVYYCARDGTYAARFDYWGQGTLVTVSSASSGGSTSGSGKPGSGEGSSGSARDIQMTQSPSSLSASVGDRVTITCQASQDISNYLNWYQQKPGKAPKLLIYDASTLETGVPSRFSGSGSGTDFTFTISSLQPEDIATYYCQQSDSFPITFGQGTKVEIKR = 7.84
UC 8 (9-2A4) scFv (scFv, Soluble scFv) scFv: QVQLVQSGAEVKKPGSSVKVSCKASGDTFSNYGFSWVRQAPGQGLEWMGGIVPVFGIATYAQKFQGRVTITADESTSTAYMELSSLRSEDTAVYYCARDYSYYPDDPRYFEYWGQGTLVTVSSASSGGSTSGSGKPGSGEGSSGSAREIVLTQSPGTLSLSPGERATLSCRASQSVSSTFLAWYQQKPGQAPRLLIYAASSRATGIPDRFSGSGSGTDFTLTISRLEPEDFAVYYCQQYGSWPLTFGQGTKVEIKR = 7.87
UC7 (9-1B5) scFv (scFv, Soluble scFv) scFv: QVQLVQSGAEVKKPGSSVKVSCKASGDTFSSYGVSWVRQAPGQGLEWMGRIVPVFGIANYAQKFQGRVTITADESTSTAYMELSSLRSEDTAVYYCARQSPYVTYSSYYFDYWGQGTLVTVSSASSGGSTSGSGKPGSGEGSSGSAREIVLTQSPGTLSLSPGERATLSCRASQSVSNNFLAWYQQKPGQAPRLLIYDASTRATGIPDRFSGSGSGTDFTLTISRLEPEDFAVYYCQQYGSWPITFGQGTKVEIKR = 7.31
UC2 (S4-2 1D10) scFv (scFv) scFv: QVQLLESGGGLVQPGGSLRLSCAASGFTFSTYAMSWVRQAPGKGLEWVSIISDGGDATFYADSVKGRFTISRDNSKNTLYLQMNSLRAEDTAVYYCARDGTSAAAFDSWGQGTLVTVSSASSGGSTSGSGKPGSGEGSSGSARDIQMTQSPSSLSASVGDRVTITCQASQDITNFLNWYQQKPGKAPKLLIYDASTLQTGVPSRFSGSGSGTDFTFTISSLQPEDIATYYCQQSDSYPITFGQGTKVEIKR = 7.84
